Data origin: PubChem BioAssay AID1159580

- experimental_details: chemical genetic growth profiling, strain panel (AID 1159580);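 note: tested at 20 µM; growth read once vehicle control cultures reached saturation at 30 °C; 1 = growth at the plate median or of vehicle wells; lower values mean less growth of the strain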
- test_settings: S. cerevisiae deletion strains, growth OD, locus YOR290C, strain snf2, hits give low values
In all, about 5,500 compounds went through this assay and about 2,000 (36%) were called active. About 18% were inconclusive and are not listed. The list shows a part of the results.
measurement_type: normalized growth

compound	measurement_type	measured_value
COc1ccc(/C=C/C(=O)O)cc1OC	normalized growth	1.04
CCCc1cc(OC)c2c(c1)OCO2	normalized growth	0.995
CCOC(=O)C1=C[C@]2(CC)CCCN3CCc4c(n1c1ccccc41)[C@@H]32	normalized growth	1.01
CC[C@]12CCCN3CCc4c(n(c5ccccc45)[C@](O)(C(=O)OC)C1)[C@@H]32	normalized growth	0.979
COc1ccc(C=CC(=O)c2ccc(O)cc2O)cc1OC	normalized growth	0.767
COc1ccc(/C=C/c2cc(O)cc(O)c2)cc1	normalized growth	0.995
OC/C=C/c1ccc(O)c(O)c1	normalized growth	1.02
C=CCc1cc(OC)c2c(c1OC)OCO2	normalized growth	0.926
CC1(C)CC2C1CCC1(C)OC2(C)CCC1O (stereo not drawn)	normalized growth	1.01
CCCCC(CC)CN=C(N)NC(N)=NCCCCCCN=C(N)NC(N)=NCC(CC)CCCC (stereo not drawn)	normalized growth	0.0664
C=CC1=C(C)/C(=C/c2[nH]c(Cc3[nH]c(/C=C4\NC(=O)C(C)=C4C=C)c(C)c3CCC(=O)O)c(CCC(=O)O)c2C)NC1=O	normalized growth	1.01
CC1(C)O[C@@H]2[C@@H](CO[C@@]3(COS(N)(=O)=O)OC(C)(C)O[C@@H]23)O1	normalized growth	1.06
CC(Cc1ccc(O)c(O)c1)(NN)C(=O)O (stereo not drawn)	normalized growth	1
CC1=CC(=O)CC(C)(C)C1(O)/C=C/C(C)=C\C(=O)O (stereo not drawn)	normalized growth	1.02
CCOC(=O)C(C)(N)Cc1ccc(O)c(O)c1 (stereo not drawn)	normalized growth	0.946
CC1(C)O[C@@H]2CC3C4CCC5=CC(=O)C=C[C@]5(C)C4[C@@H](O)C[C@]3(C)[C@]2(C(=O)CO)O1 (stereo partly drawn)	normalized growth	1.01
CCn1cc(C(=O)O)c(=O)c2ccc(C)nc21	normalized growth	0.962
c1ccc(-c2ccc(C(c3ccccc3)n3ccnc3)cc2)cc1 (stereo not drawn)	normalized growth	0.0719
CC(COc1ccccc1)N(CCCl)Cc1ccccc1 (stereo not drawn)	normalized growth	0.898
C[C@@H]1C[C@@H]([C@H](O)CC2CC(=O)NC(=O)C2)C(=O)[C@@H](C)C1	normalized growth	0.0637
Cc1ccc(C(C)C)cc2c(C)ccc1-2	normalized growth	0.98
CN(Cc1cc(Br)cc(Br)c1N)C1CCCCC1	normalized growth	1
CC1(C)C2CC(=O)O[C@@]3(C)C4=CC(=O)O[C@@H](c5ccoc5)[C@]4(C)CCC3[C@@]2(C)C=C[C@H]1O (stereo partly drawn)	normalized growth	0.974
NC(=O)c1ccc(N)nc1	normalized growth	1.01
COS(C)(=O)=O	normalized growth	0.995
COc1cc2c(cc1O)CC1c3c(cc(O)c(OC)c3-2)CCN1C (stereo not drawn)	normalized growth	0.999
CC1=C(/C=C/C(C)=C/C=C/C(C)=C\C(=O)O)C(C)(C)CCC1	normalized growth	1.01
C[C@H](COc1ccccc1)N[C@H](C)[C@H](O)c1ccc(O)cc1	normalized growth	0.938
COc1ccc(C[C@H](N)C(=O)N[C@@H]2[C@@H](CO)OC(n3cnc4c(N(C)C)ncnc43)[C@@H]2O)cc1 (stereo partly drawn)	normalized growth	1
CCn1cc(C(=O)O)c(=O)c2cnc(N3CCNCC3)nc21	normalized growth	1.04
CCOC(=O)c1ccc(N)cc1	normalized growth	0.988
CCC(COC(=O)c1cc(OC)c(OC)c(OC)c1)(c1ccccc1)N(C)C (stereo not drawn)	normalized growth	0.925
O=c1cccc2n1C[C@H]1CNCC2C1	normalized growth	0.958
COc1ccc(/C=C/C(=O)c2ccc(O)cc2O)cc1	normalized growth	0.28
CS(=O)(=O)OCCCCOS(C)(=O)=O	normalized growth	1.06
CC1(C)CC2C1CCC1(C)OC1CCC2(C)O (stereo not drawn)	normalized growth	1.04
COc1ccc(/C=C/C(=O)c2cc(O)ccc2O)cc1	normalized growth	0.145
Cc1cccc(CN2CCN(C(c3ccccc3)c3ccc(Cl)cc3)CC2)c1 (stereo not drawn)	normalized growth	0.764
C[C@](N)(Cc1ccc(O)c(O)c1)C(=O)O	normalized growth	0.86
CO[C@@H]1[C@@H](O[C@@H]2O[C@H](C)[C@@H](O[C@H]3C[C@@](C)(O)[C@H](O)[C@H](C)O3)[C@H](N(C)C)[C@H]2O)[C@@H](CC=O)C[C@@H](C)[C@@H](O[C@H]2CC[C@H](N(C)C)[C@@H](C)O2)/C=C/C=C/C[C@H](C)OC(=O)C[C@H]1O	normalized growth	1
COC(=O)[C@H]1[C@H]2C[C@@H]3c4[nH]c5cc(OC)ccc5c4CCN3C[C@H]2C[C@@H](OC(=O)c2cc(OC)c(OC)c(OC)c2)[C@@H]1OC	normalized growth	0.948
Oc1ccc(/C=C/c2cc(O)cc(O)c2)cc1	normalized growth	0.95
O=C(/C=C/c1ccc(O)c(O)c1)O[C@@H]1C[C@](O)(C(=O)O)C[C@@H](O)[C@H]1O	normalized growth	1.01
